target: Cytochrome P450 2C9 (Homo sapiens, UniProt P11712)
Sequence (P11712 whole entry): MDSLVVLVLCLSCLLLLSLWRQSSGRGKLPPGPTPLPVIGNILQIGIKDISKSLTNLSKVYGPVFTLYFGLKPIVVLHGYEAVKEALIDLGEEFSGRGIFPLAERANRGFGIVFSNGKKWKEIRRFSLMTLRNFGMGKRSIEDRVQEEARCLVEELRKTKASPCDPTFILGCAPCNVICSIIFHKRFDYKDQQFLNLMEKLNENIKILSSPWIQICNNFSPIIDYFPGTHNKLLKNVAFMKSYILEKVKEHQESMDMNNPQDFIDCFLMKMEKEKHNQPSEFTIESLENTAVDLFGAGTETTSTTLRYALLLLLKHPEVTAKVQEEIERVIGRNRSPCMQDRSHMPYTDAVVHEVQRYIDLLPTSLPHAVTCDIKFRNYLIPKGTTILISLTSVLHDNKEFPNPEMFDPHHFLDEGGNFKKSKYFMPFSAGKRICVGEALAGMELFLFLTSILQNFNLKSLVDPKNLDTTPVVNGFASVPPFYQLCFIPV
VALUE_KIND: IC50

Problem: Which IC50 is reported for this compound? "CN(C/C=C/c1ccc(-c2ccccc2)cc1)Cc1coc2ccccc12.Cl"
Solution: > 10 µM

* * *

target: Cytochrome P450 3A4 (Homo sapiens); test: Inhibition of CYP3A4 in human liver microsomes using midazolam as substrate upto 10 uM after 5 mins in presence of NADPH by LC-MS/MS analysis; format: ADME
Sequence (P08684 whole entry): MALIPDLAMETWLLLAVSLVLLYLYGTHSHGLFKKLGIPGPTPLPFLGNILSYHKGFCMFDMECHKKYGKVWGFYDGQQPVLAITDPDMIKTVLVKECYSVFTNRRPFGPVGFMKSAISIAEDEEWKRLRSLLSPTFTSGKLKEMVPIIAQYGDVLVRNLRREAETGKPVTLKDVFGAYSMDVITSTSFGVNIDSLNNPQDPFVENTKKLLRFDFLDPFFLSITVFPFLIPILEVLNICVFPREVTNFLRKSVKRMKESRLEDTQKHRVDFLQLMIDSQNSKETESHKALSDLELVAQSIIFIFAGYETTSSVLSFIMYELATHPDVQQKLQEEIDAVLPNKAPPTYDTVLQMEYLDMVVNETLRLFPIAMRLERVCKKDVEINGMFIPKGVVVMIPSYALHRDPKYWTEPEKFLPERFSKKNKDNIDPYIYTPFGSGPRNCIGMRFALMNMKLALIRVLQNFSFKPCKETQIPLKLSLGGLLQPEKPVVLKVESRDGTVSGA
pIC50: −log10 of the molar value.
VALUE_KIND: pIC50

Problem: Which pIC50 is reported for this compound? "CN(C/C=C/c1ccc(-c2ccccc2)cc1)Cc1coc2ccccc12.Cl"
Solution: < 5.00

* * *

test: AUC (0 to 24 hrs) in mouse at 10 mg/kg, po administered as single dose by LC-MS/MS analysis; format: ADME, organism-based; design: time < 24 hr, dose 10 mg/kg, route oral; conditions: in vivo
VALUE_KIND: AUC(0-t) at 24 h (ng·h/mL)
Quick reminder: number only, in ng·h/mL, skip the unit.

Problem: Which AUC(0-t) at 24 h is reported for this compound? "CN(C/C=C/c1ccc(-c2ccccc2)cc1)Cc1coc2ccccc12.Cl"
Solution: 4530

* * *

test: Cmax in mouse at 2 mg/kg, iv administered as single dose by LC-MS/MS analysis; assay type: ADME, organism-based; parameters: dose 2 mg/kg, route intravenous; conditions: in vivo
VALUE_KIND: Cmax
Write the numeric value and append its unit.

Problem: Which Cmax is reported for this molecule? "CN(C/C=C/c1ccc(-c2ccccc2)cc1)Cc1coc2ccccc12.Cl"
Solution: 2230 ng/mL

* * *

test: Tmax in mouse at 2 mg/kg, iv administered as single dose by LC-MS/MS analysis; format: ADME, organism-based; conditions: in vivo
VALUE_KIND: Tmax (min)
Quick reminder: number only, in min, skip the unit.

Problem: Which Tmax is reported for this molecule? "CN(C/C=C/c1ccc(-c2ccccc2)cc1)Cc1coc2ccccc12.Cl"
Solution: 4.8

* * *

assay: Oral bioavailability in Sprague-Dawley rat at 10 mg/kg administered as single dose by LC-MS/MS analysis; assay type: ADME, organism-based; details: in vivo
VALUE_KIND: bioavailability

Problem: Which bioavailability is reported for this compound? "CN(C/C=C/c1ccc(-c2ccccc2)cc1)Cc1coc2ccccc12.Cl"
Solution: 16.3%

* * *

test: Aqueous solubility of compound after 24 hrs by HPLC method; type: physicochemical
solubility at 24 h overview
Quick reminder: number only, in µg/mL, skip the unit.

Problem: Which solubility at 24 h is reported for this molecule? "CN(C/C=C/c1ccc(C(F)(F)F)cc1)Cc1cccc2ccoc12.Cl"
Solution: 10000

Problem: Similarly, "CN(C/C=C/c1ccc(-c2ccccc2)cc1)Cc1coc2ccccc12.Cl" ?
Solution: 200

Problem: Similarly, "CN(C/C=C/c1ccc(-c2ccccc2)cc1)Cc1cccc2cc[nH]c12.Cl" ?
Solution: 200

* * *

pIC50 overview
Biological target: 4,4'-diapophytoene desaturase (4,4'-diaponeurosporene-forming) (Staphylococcus aureus (strain Newman), UniProt O07855)
Sequence (O07855 whole entry): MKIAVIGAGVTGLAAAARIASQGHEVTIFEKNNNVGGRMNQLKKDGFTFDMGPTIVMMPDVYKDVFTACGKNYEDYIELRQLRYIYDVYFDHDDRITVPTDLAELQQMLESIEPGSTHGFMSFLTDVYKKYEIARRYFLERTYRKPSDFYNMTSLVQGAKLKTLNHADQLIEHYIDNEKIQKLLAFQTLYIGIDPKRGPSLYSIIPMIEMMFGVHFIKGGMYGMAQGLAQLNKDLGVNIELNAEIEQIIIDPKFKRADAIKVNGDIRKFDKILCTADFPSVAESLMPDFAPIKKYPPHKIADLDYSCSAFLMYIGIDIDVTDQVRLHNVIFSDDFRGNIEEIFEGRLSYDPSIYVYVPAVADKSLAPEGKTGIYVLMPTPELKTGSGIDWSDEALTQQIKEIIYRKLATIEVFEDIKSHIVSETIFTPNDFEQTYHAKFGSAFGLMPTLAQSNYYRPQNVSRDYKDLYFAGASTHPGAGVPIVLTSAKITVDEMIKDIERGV
Experiment: Inhibition of CrtN in Staphylococcus aureus Newman assessed as reduction in staphyloxanthin levels after 48 hrs by spectrophotometric method-based pigment inhibition assay
Parameters: species or system Staphylococcus aureus subsp. aureus str. Newman
pIC50: −log10 of the molar value.

Completed entries (count: 3):
Problem: Which pIC50 is reported for this molecule? "CN(C/C=C/c1ccccc1C(F)(F)F)Cc1coc2ccccc12"
Solution: < 6.00

Problem: Similarly, "CN(C/C=C/c1ccccc1F)Cc1cccc2cc[nH]c12" ?
Solution: < 6.00

Problem: Similarly, "CN(C/C=C/c1ccc(C(F)(F)F)cc1)Cc1csc2ccccc12" ?
Solution: < 6.00

***
Problem: Which pIC50 is reported for this molecule? "COc1ccc(/C=C/CN(C)Cc2coc3ccccc23)cc1F"
Solution: < 6.00

Problem: Similarly, "CN(C/C=C/c1ccc(C(C)(C)C)cc1)Cc1coc2ccccc12" ?
Solution: < 6.00

Problem: Similarly, "CN(C/C=C/c1ccco1)Cc1coc2ccccc12" ?
Solution: < 6.00

Problem: Similarly, "CN(C/C=C/C1CCCCC1)Cc1coc2ccccc12" ?
Solution: < 6.00
